The reported measurements were obtained from ChEMBL document CHEMBL4513216.

Reported cytotoxicity at 10 µM values for the following molecules.
- assay.protocol: Toxicity liver stage against HepG2, at 10uM
- Type: cell-based
- Set-up: test concentration 10 uM, cell line HepG2-A16-CD81EGFP
- stated.conditions: human, HepG2-A16-CD81EGFP cells; read-out: INHIBITION
// units = %; emit number, no label

>>> recorded_result("CCc1ncnc2c1CCN(Cc1ccccn1)CC2")
1.39

// query Endpoint output: cytotoxicity at 10 µM of O=c1oc(-c2ccccc2)nn1CN1CCC(N2CCCCC2)CC1 . Value?
// result 6.64

// query Endpoint output: cytotoxicity at 10 µM of CCNC(=O)N1CCc2ccc(NC(=O)NCCOCC)cc21 . Value?
// result -3.86

// query Endpoint output: cytotoxicity at 10 µM of COc1c(C2CCCN2c2ncnc3ccsc23)c(C)nn1C (stereo not given) . Value?
// result 18.6

// query Endpoint output: cytotoxicity at 10 µM of Cc1cc(CN(C)C(=O)NCc2ccco2)no1 . Value?
// result 1.58

###

- assay.protocol: Toxicity liver stage against HepG2, at 10uM
- Type: cell-based
- Parameters: test concentration 10 uM, cell line HepG2-A16-CD81EGFP
- stated.conditions: human, HepG2-A16-CD81EGFP cells; read-out: INHIBITION
property: cytotoxicity at 10 µM (%)
// units = %; emit number, no label

Consider the reported cytotoxicity at 10 µM for these compounds:
>>> recorded_result("OCC1(O)CCCN(Cc2ccccc2OCCc2ccccc2)CC1 (stereo not drawn)")
-45.4
>>> recorded_result("O=C(NCC1CCCCC1)NC1CCCc2c1cnn2CCO (stereo not drawn)")
-2.92

// moving on: another record for cytotoxicity at 10 µM
// query Endpoint output: cytotoxicity at 10 µM of CC(C)n1nc2c(cc1=O)CN(CC1CCCCO1)CC2 (stereo not drawn) . Value?
// result 14.5

###

- assay.protocol: Toxicity liver stage against HepG2, at 10uM
- Assay type: cell-based
- Parameters: test concentration 10 uM, cell line HepG2-A16-CD81EGFP
- stated.conditions: human, HepG2-A16-CD81EGFP cells; read-out: INHIBITION
Reported cytotoxicity at 10 µM values for the following molecules.
// units = %; emit number, no label

>>> recorded_result("O=C1[C@H]2CN(Cc3nccs3)C[C@H]2CN1c1ccsc1")
3.06

// query Endpoint output: cytotoxicity at 10 µM of COc1c(CNCc2cccnc2OC2CCCC2)c(C)nn1C . Value?
// result -2.01

// query Endpoint output: cytotoxicity at 10 µM of COc1cc(N2CC[C@@H](O)[C@@H]2Cc2cccnc2)ncn1 . Value?
// result -77.9

// query Endpoint output: cytotoxicity at 10 µM of CC(C)CNC(=O)CCN1C(=O)CCc2cc(F)ccc21 . Value?
// result 8.17

###

- assay.protocol: Toxicity liver stage against HepG2, at 10uM
- Format: cell-based
- Parameters: test concentration 10 uM, cell line HepG2-A16-CD81EGFP
- stated.conditions: human, HepG2-A16-CD81EGFP cells; read-out: INHIBITION
Reported cytotoxicity at 10 µM values for the following compounds.
// units = %; emit number, no label

Consider the reported cytotoxicity at 10 µM for these compounds:
>>> recorded_result("CCc1nn(C)c(Cl)c1CN(CCOC)Cc1cnn(C)c1")
-6.5
>>> recorded_result("O=C(NC1CC1)[C@@H]1CCO[C@@H]2CCN(C3CCOCC3)C[C@H]21")
-9.99
>>> recorded_result("N#Cc1ccc(S(=O)(=O)Nc2ccc(N3CCOCC3)cn2)cc1")
0.966
>>> recorded_result("CSCCc1nc(-c2ccc3c(c2)OCO3)n(C)n1")
1.6

// moving on: another record for cytotoxicity at 10 µM
// query Endpoint output: cytotoxicity at 10 µM of CC(C)n1c(=O)[nH]c2cn(-c3ccc(F)cc3)c(=O)n21 . Value?
// result -7.74
